- target_desc: AKT2 (Homo sapiens, UniProt P31751)
- Construct: expressed in transfected cells; host or cells: HEK293
- Sequence (P31751 whole entry): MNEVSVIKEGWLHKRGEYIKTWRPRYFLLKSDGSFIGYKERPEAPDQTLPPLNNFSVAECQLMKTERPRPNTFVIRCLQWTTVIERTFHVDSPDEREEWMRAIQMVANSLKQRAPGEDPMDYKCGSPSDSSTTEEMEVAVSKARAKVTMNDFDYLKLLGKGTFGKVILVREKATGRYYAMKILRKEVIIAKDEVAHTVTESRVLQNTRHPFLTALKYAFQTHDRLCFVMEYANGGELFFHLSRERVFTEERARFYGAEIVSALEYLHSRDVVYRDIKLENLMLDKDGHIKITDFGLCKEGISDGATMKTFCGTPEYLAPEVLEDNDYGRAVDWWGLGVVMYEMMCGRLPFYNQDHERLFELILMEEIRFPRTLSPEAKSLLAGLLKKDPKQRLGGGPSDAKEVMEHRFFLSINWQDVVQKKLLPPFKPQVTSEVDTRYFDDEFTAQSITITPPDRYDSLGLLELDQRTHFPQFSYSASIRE
- method_notes: Live cell AKT2 target engagement by NanoBRET competitive probe displacement in HEK293 cells
- Assay type: binding
- run_conditions: NanoBRET live cell target engagement, HEK293 cells, 2 h at 37° C.; read-out: AKT2 IC50
test_readout: IC50 (nM)

Known IC50 results, listed for orientation:
INSERT INTO assay_data (smiles_str, unit_info, readout_number) VALUES
  ('Cc1nccnc1C(=O)N[C@H]1CCc2cc(-n3c(-c4cccnc4N)nc4ccc(-n5cccn5)nc43)ccc21', 'nM', 3230),
  ('Nc1ncccc1-c1nc2ccc(-n3cccn3)nc2n1-c1ccc2c(c1)CC[C@@H]2NC(=O)c1cccnc1-n1cccn1', 'nM', 5850),
  ('CN(C)Cc1ccc(C(=O)N[C@H]2CCc3cc(-n4c(-c5cccnc5N)nc5ccc(-n6cccn6)nc54)ccc32)cn1', 'nM', 169),
  ('Nc1ncccc1-c1nc2ccc(-n3cccn3)nc2n1-c1ccc2c(c1)CC[C@@H]2NC(=O)c1cnc(C(F)F)cc1F', 'nM', 83.5),
  ('Nc1ncccc1-c1nc2ccc(-n3cccn3)nc2n1-c1ccc2c(c1)CC[C@@H]2NC(=O)c1cccc(O)c1', 'nM', 123),
  ('COc1cc(C(=O)N[C@H]2CCc3cc(-n4c(-c5cccnc5N)nc5ccc(-n6cccn6)nc54)ccc32)ccn1', 'nM', 9.84);

[P] Nc1ncccc1-c1nc2ccc(-n3cccn3)nc2n1-c1ccc2c(c1)CC[C@@H]2NCc1cccnc1
[Q] Nc1ncccc1-c1nc2ccc(-n3cccn3)nc2n1-c1ccc2c(c1)CC[C@@H]2NC(=O)c1ccc(F)c(F)c1
Larger number for IC50: P , or Q ? I would appreciate it if you answered with the label of your choice.
P

----------
- target_desc: AKT1 E17K (Homo sapiens, UniProt P31749, E17K)
- Construct: expressed in transfected cells; host or cells: HEK293
- Sequence (P31749 whole entry E17K): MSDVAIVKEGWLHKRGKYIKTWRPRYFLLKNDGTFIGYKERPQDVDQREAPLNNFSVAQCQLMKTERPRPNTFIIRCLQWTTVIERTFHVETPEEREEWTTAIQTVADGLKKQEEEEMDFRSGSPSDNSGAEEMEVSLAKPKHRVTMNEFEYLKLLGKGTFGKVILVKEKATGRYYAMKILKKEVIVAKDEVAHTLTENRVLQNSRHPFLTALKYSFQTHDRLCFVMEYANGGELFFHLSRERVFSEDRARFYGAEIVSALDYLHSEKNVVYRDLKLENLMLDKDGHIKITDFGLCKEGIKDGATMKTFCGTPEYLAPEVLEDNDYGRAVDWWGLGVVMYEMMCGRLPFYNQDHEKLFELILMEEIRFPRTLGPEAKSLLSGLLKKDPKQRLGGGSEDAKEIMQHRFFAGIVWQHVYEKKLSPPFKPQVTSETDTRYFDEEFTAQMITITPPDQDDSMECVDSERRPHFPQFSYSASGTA
- method_notes: Live cell AKT1 E17K target engagement by NanoBRET competitive probe displacement in HEK293 cells
- Type: binding
- run_conditions: NanoBRET live cell target engagement, HEK293 cells, 2 h at 37° C.
test_readout: IC50 (nM)

[1] Nc1ncccc1-c1nc2ccc(-n3cccn3)nc2n1-c1ccc2c(c1)CC[C@@H]2NC(=O)c1ccc(O)cc1
[2] Nc1ncccc1-c1nc2ccc(-n3cccn3)nc2n1-c1ccc2c(c1)CC[C@@H]2NC(=O)c1ccnc2c1CCO2
Hi there! Just curious which has the higher IC50 between 1 and 2 . I would appreciate it if you answered with the label of your choice.
2
(2: 408 nM, 1: 14.4 nM)

----------
- target_desc: AKT2 (Homo sapiens)
- Construct: expressed in transfected cells; host or cells: HEK293
- method_notes: Live cell AKT2 target engagement by NanoBRET competitive probe displacement in HEK293 cells
- Assay type: binding
- run_conditions: NanoBRET live cell target engagement, HEK293 cells, 2 h at 37° C.; read-out: AKT2 IC50
pIC50: −log10 of the molar value.
test_readout: pIC50

Previously resolved entries follow.
INSERT INTO results (smiles_str, test_readout, readout_number) VALUES
  ('Cc1nc(C(F)F)ccc1C(=O)N[C@H]1CCc2cc(-n3c(-c4cccnc4N)nc4ccc(-n5nccn5)nc43)ccc21', 'pIC50', 5.26),
  ('Nc1ncccc1-c1nc2ccc(-n3nccn3)nc2n1-c1ccc2c(c1)CC[C@@H]2NC(=O)c1cc(F)c2[nH]ncc2c1', 'pIC50', 6.67);

[1] Nc1ncccc1-c1nc2ccc(-n3cccn3)nc2n1-c1ccc2c(c1)CC[C@@H]2NC(=O)c1cnc(C(F)F)c(Cl)c1
[2] Nc1ncccc1-c1nc2ccc(-c3ccccc3)nc2n1-c1ccc2c(c1)CC[C@@H]2NC1CCN(C(=O)C2CC2)CC1
[3] Cc1ccc(C(=O)N[C@H]2CCc3cc(-n4c(-c5cccnc5N)nc5ccc(-n6nccn6)nc54)ccc32)cn1
[4] N#CC1(C(=O)N2CCC(N[C@H]3CCc4cc(-n5c(-c6cccnc6N)nc6ccc(-n7cccn7)nc65)ccc43)CC2)CC1
Arrange these compounds by their pIC50, starting with the largest number. Thanks in advance for listing the labels in the requested order.
1, 2, 3, 4

----------
- target_desc: AKT2 (Homo sapiens, UniProt P31751)
- Construct: expressed in transfected cells; host or cells: HEK293
- method_notes: Live cell AKT2 target engagement by NanoBRET competitive probe displacement in HEK293 cells
- Format: binding
- run_conditions: NanoBRET live cell target engagement, HEK293 cells, 2 h at 37° C.; read-out: AKT2 IC50
pIC50: −log10 of the molar value.
test_readout: pIC50

INSERT INTO measurements (compound, readout_number) VALUES
  ('Cc1cc(C(=O)N[C@H]2CCc3cc(-n4c(-c5cccnc5N)nc5ccc(-n6cccn6)nc54)ccc32)cc(C)n1 [Compound 76]', 7.40);

[a] Nc1ncccc1-c1nc2ccc(-n3cccn3)nc2n1-c1ccc2c(c1)CC[C@@H]2NC(=O)c1cccnc1C(F)(F)F [Compound 110]
[b] Cc1coc(-c2ccc3nc(-c4cccnc4N)n(-c4ccc5c(c4)CC[C@@H]5n4ccnn4)c3n2)n1 [Compound 245]
[c] Nc1ncccc1-c1nc2ccc(-n3cccn3)nc2n1-c1ccc2c(c1)CC[C@@H]2NC(=O)c1cccnc1C#Cc1ccccc1 [Compound 210]
[d] Cc1cc(C(=O)N[C@H]2CCc3cc(-n4c(-c5cccnc5N)nc5ccc(-n6cccn6)nc54)ccc32)cnc1C(F)F [Compound 60]
[e] Nc1ncccc1-c1nc2ccc(-n3cccn3)nc2n1-c1ccc2c(c1)CC[C@@H]2NC(=O)c1cncnc1C(F)F [Compound 116]
Reorder: pIC50, max to min. Answer by naming the labels in the order asked.
d, e, c, a, b

----------
- target_desc: AKT1 WT (Homo sapiens, UniProt P31749)
- Construct: expressed in transfected cells; host or cells: HEK293
- Sequence (P31749 whole entry): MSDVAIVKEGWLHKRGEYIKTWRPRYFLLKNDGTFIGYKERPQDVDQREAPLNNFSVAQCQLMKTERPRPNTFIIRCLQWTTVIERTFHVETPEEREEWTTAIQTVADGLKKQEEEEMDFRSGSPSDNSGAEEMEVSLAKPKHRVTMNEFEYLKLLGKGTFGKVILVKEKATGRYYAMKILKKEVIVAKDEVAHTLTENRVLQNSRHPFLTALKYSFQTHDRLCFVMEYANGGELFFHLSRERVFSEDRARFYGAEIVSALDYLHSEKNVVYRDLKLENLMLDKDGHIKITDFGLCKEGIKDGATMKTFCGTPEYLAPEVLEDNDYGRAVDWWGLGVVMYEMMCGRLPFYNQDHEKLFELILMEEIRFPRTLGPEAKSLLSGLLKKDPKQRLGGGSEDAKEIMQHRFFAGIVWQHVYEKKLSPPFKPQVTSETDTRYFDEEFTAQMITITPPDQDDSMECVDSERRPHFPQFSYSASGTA
- method_notes: Live cell AKT1 WT target engagement by NanoBRET competitive probe displacement in HEK293 cells
- Assay type: binding
- run_conditions: NanoBRET competitive probe displacement, live HEK293 cells, 2 h at 37° C.; read-out: AKT1 WT IC50
pIC50: −log10 of the molar value.
test_readout: pIC50

INSERT INTO measurements (compound, target_desc, test_readout, readout_number) VALUES
  ('Nc1ncccc1-c1nc2ccc(-n3nccn3)nc2n1-c1ccc2c(c1)CC(F)[C@@H]2NC1CCN(C(=O)C2CC2)CC1 (stereo partly drawn) [Compound 532]', 'AKT1 WT (Homo sapiens, UniProt P31749)', 'pIC50', 6.75),
  ('Nc1ncccc1-c1nc2ccc(-n3ccc(OC(F)F)n3)nc2n1-c1ccc2c(c1)CC(F)[C@@H]2NC1CCN(C(=O)C2CC2)CC1 (stereo partly drawn) [Compound 525]', 'AKT1 WT (Homo sapiens, UniProt P31749)', 'pIC50', 7.47),
  ('Nc1ncccc1-c1nc2ccc(-n3ccc(OCCN4CCOCC4)n3)nc2n1-c1ccc2c(c1)CC[C@@H]2NC1CCN(C(=O)C2CC2)CC1 [Compound 505]', 'AKT1 WT (Homo sapiens, UniProt P31749)', 'pIC50', 7.75),
  ('COc1cnc(C#N)nc1N1CCC(N[C@H]2CCc3cc(-n4c(-c5cccnc5N)nc5ccc(-n6cccn6)nc54)ccc32)CC1 [Cpd 586]', 'AKT1 WT (Homo sapiens, UniProt P31749)', 'pIC50', 8.16);

[1] Nc1ncccc1-c1nc2ccc(-n3cccn3)nc2n1-c1ccc2c(c1)CC[C@@H]2NC1CCN(C(=O)C2CC2)C1 (stereo partly drawn) [Compound 462]
[2] Nc1ncccc1-c1nc2ccc(-n3cccn3)nc2n1-c1ccc2c(c1)CC[C@H]2NC1CCN(C(=O)C2CC2)CC1 [Compound 500]
Given 1 and given 2 , which shows the smaller recorded pIC50? # answer = label of selected item
1

----------
- target_desc: AKT2 (Homo sapiens, UniProt P31751)
- Construct: expressed in transfected cells; host or cells: HEK293
- method_notes: Live cell AKT2 target engagement by NanoBRET competitive probe displacement in HEK293 cells
- Type: binding
- run_conditions: AKT2 IC50 (nM), NanoBRET live cell target engagement, HEK293 cells, 2 h at 37° C.
test_readout: IC50 (nM)
Report the value in nM with no unit label.

State, in one line, measured IC50 of Nc1ncccc1-c1nc2ccc(-n3cccn3)nc2n1-c1ccc2c(c1)CC[C@@H]2n1cc(-c2ccccc2)nn1 [Compound 155]
197

----------
- target_desc: AKT1 WT (Homo sapiens, UniProt P31749)
- Construct: expressed in transfected cells; host or cells: HEK293
- method_notes: Live cell AKT1 WT target engagement by NanoBRET competitive probe displacement in HEK293 cells
- Assay type: binding
- run_conditions: NanoBRET competitive probe displacement, live HEK293 cells, 2 h at 37° C.; read-out: AKT1 WT IC50
pIC50: −log10 of the molar value.
test_readout: pIC50

Worked cases, answers included:
INSERT INTO results (compound, test_readout, readout_number) VALUES
  ('Nc1ncccc1-c1nc2ccc(-n3ccc(C4CC4)n3)nc2n1-c1ccc2c(c1)CC[C@@H]2NC1CCN(C(=O)C2CC2)CC1 [Compound 442]', 'pIC50', 7.14),
  ('CN(CC1CC1)[C@H]1CCc2cc(-n3c(-c4cccnc4N)nc4ccc(-n5cccn5)nc43)ccc21 [Compound 437]', 'pIC50', 7.09);

[I] COc1ccn(-c2ccc3nc(-c4cccnc4N)n(-c4ccc5c(c4)CC[C@@H]5NC4CCN(C(=O)C5CC5)CC4F)c3n2)n1 (stereo partly shown) [Compound 515]
[II] COc1ccn(-c2ccc3nc(-c4cccnc4N)n(-c4ccc5c(c4)CC[C@@H]5NC4[C@@H]5COC[C@H]4CN(C(=O)C4CC4)C5)c3n2)n1 (single isomer, unassigned) [Compound 524]
# return whichever of I and II has the smaller pIC50 Identify your pick by its label.
II
(II: 7.32, I: 7.92)
